- System: Rhizoctonia solani
- assay: Fungicidal activity against Rhizoctonia solani assessed as inhibition of mycelium growth by mycelium growth rate test
- Format: functional, organism-based
Could you please report measured EC50 for the items listed next?
Entry format: amount then unit.

Task item: State the recorded EC50 for this entry: O=C1CCCCCCCCCCC(NS(=O)(=O)c2cccc([N+](=O)[O-])c2)CCCO1 (centres undefined)
Reply: 18.7 µg/mL

Task item: Input CC1CCC(NS(=O)(=O)c2cc(Cl)ccc2Cl)CCCCCCCCCCC(=O)O1 (centres undefined)
Reply: 30 µg/mL

Task item: One more compound: CC1CCC(NS(=O)(=O)c2cccs2)CCCCCCCCCCC(=O)O1 (centres undefined)
Reply: 20.3 µg/mL

Task item: Request: CC1CCC(NS(C)(=O)=O)CCCCCCCCCCC(=O)O1 (centres undefined)
Reply: 56.4 µg/mL

Task item: How about this compound: O=C1CCCCCCCCCCC(NS(=O)(=O)c2ccccc2Cl)CCCO1 (centres undefined)
Reply: 25 µg/mL

Task item: And O=C1CCCCCCCCCCC(NS(=O)(=O)c2cc(Cl)ccc2Cl)CCCN1 (centres undefined) ?
Reply: 30.4 µg/mL

Task item: `O=C1CCCCCCCCCCCN1CCNS(=O)(=O)c1cccc([N+](=O)[O-])c1` ?
Reply: 10.7 µg/mL

Task item: Same lookup for O=C1CCCCCCCCCCC(NS(=O)(=O)c2ccccc2)CCCN1 (centres undefined) , please.
Reply: 55.3 µg/mL

Task item: Another compound to check: O=C1CCCCCCCCCCC(NS(=O)(=O)c2cccc([N+](=O)[O-])c2)CCCN1 (centres undefined)
Reply: 27.6 µg/mL
